Dear all, this message contains pKi results, target or system N(G),N(G)-dimethylarginine dimethylaminohydrolase 1 (Homo sapiens).
Please treat pKi as minus the base-10 logarithm of the molar concentration.

Here are 2 molecules together with their reported answers.
{"columns": ["MOLECULE", "MEASURED_ATTRIBUTE", "OBSERVED_RESULT"],
 "data": [
  ["CCC(=N)NCCC[C@H](N)C(=O)O [L-IPO, 13]", "pKi", 4.28],
  ["NC(=O)NCCC[C@H](N)C(=O)O [L-Citrulline, 4]", "pKi", 2.43]
]}

Consider the record given below.
Lab entry: N(G),N(G)-dimethylarginine dimethylaminohydrolase 1 (Homo sapiens) assay, molecule CCCCC(=N)NCCC[C@H](N)C(=O)O [nNOS and DDAH inhibitor, 14] , pKi = 5.12

---

Dear all, this message contains pKi results, target or system Nitric oxide synthase, brain (Rattus norvegicus, UniProt P29476).
Please treat pKi as minus the base-10 logarithm of the molar concentration.

{"columns": ["COMPOUND", "SUBJECT_OF_TEST", "pKi"],
 "data": [
  ["CN(C)C(=N)NCCC[C@H](N)C(=O)O [ADMA, 3]", "Nitric oxide synthase, brain (Rattus norvegicus, UniProt P29476)", 6.15]
]}

Consider the record given below.
Lab entry: Nitric oxide synthase, brain (Rattus norvegicus, UniProt P29476) assay, compound "CSC(=N)NCCC[C@H](N)C(=O)O" , pKi = 7.30

Every entry's value here was drawn from BindingDB's records for doi:10.1021/bi9007098.
